target: human orexin-2 receptor (Homo sapiens (Human)); assay: Intracellular calcium measurement (FLIPR), CHO cells expressing human orexin-2 receptor, 3 nM orexin-A; assay type: cell-based; settings: CHO cells expressing human orexin-2 receptor, FLIPR, 3 nM orexin-A; geometric mean if determined several times; read-out: IC50 OX2
Sequence (O43614 whole entry): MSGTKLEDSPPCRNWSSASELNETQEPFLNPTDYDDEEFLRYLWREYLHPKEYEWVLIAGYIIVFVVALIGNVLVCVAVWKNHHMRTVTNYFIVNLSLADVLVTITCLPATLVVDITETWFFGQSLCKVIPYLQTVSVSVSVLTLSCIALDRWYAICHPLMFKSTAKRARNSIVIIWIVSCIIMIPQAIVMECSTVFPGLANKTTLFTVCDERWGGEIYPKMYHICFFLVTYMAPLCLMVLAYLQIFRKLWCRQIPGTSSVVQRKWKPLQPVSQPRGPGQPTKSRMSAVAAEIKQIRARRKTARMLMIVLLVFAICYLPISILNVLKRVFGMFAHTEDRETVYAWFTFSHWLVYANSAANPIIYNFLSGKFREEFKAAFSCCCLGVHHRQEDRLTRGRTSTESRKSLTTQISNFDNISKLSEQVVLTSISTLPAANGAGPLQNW
Experimental Readout: IC50 (nM)

// below: answered compounds
[
  {
    "Structure Smiles": "Cc1c(F)cccc1-c1noc([C@@H]2CCCN2C(=O)c2cc(F)ccc2-n2nccn2)n1",
    "Measurement Target": "human orexin-2 receptor (Homo sapiens (Human))",
    "Experimental Readout": "IC50",
    "Numeric Result": 38
  },
  {
    "Structure Smiles": "Cc1ccc(-n2nccn2)c(C(=O)N2CCC[C@H]2c2nc(-c3c[nH]c4ccccc34)no2)c1",
    "Measurement Target": "human orexin-2 receptor (Homo sapiens (Human))",
    "Experimental Readout": "IC50",
    "Numeric Result": 8
  },
  {
    "Structure Smiles": "CCOc1ccccc1-c1nnc([C@@H]2CCCN2C(=O)c2cc(C)ccc2-n2nccn2)o1",
    "Measurement Target": "human orexin-2 receptor (Homo sapiens (Human))",
    "Experimental Readout": "IC50",
    "Numeric Result": 375
  },
  {
    "Structure Smiles": "CC(=O)n1cc(-c2noc([C@@H]3CCCN3C(=O)c3cc(C)ccc3-n3nccn3)n2)c2ccccc21",
    "Measurement Target": "human orexin-2 receptor (Homo sapiens (Human))",
    "Experimental Readout": "IC50",
    "Numeric Result": 23
  },
  {
    "Structure Smiles": "COc1ccc(-n2nccn2)c(C(=O)N2CCC[C@H]2c2nc(-c3cccc(Cl)c3C)no2)c1F",
    "Measurement Target": "human orexin-2 receptor (Homo sapiens (Human))",
    "Experimental Readout": "IC50",
    "Numeric Result": 76
  },
  {
    "Structure Smiles": "Cc1ccc(-n2nccn2)c(C(=O)N2CCC[C@H]2c2nnc(-c3ccccc3OC(F)(F)F)[nH]2)c1",
    "Measurement Target": "human orexin-2 receptor (Homo sapiens (Human))",
    "Experimental Readout": "IC50",
    "Numeric Result": 10
  }
]

[1] COc1c(F)cccc1-c1nnc([C@@H]2CCCN2C(=O)c2cc(C)ccc2-n2nccn2)[nH]1
[2] Cc1ccc(-n2nccn2)c(C(=O)N2CCC[C@H]2c2nc(-c3ccccc3C)no2)c1
Given 1 and given 2 , which shows the smaller recorded IC50? Your answer should be the label of the entry you select.
2

[P] COc1ccccc1-c1nnc([C@@H]2CCCN2C(=O)c2cc(C)c(C)cc2-n2nccn2)[nH]1
[Q] CCOc1ncccc1-c1noc([C@@H]2CCCN2C(=O)c2ccccc2-n2nccn2)n1
[R] CCOc1ncccc1-c1cc([C@@H]2CCCN2C(=O)c2cc(C)ccc2-n2nccn2)on1
[S] Cc1cc(F)cc(C(=O)N2CCC[C@H]2c2nc(-c3ccccc3OC(F)(F)F)no2)c1-n1nccn1
[T] CCOc1ccccc1-c1cnc([C@@H]2CCCN2C(=O)c2cc(C)ccc2-n2nccn2)[nH]1
Please give the order of these compounds when sorted by IC50, largest value leading. Sort and list the labels as requested.
S, Q, P, R, T

[P] COc1c(F)cccc1-c1noc([C@@H]2CCCN2C(=O)c2ccccc2-n2nccn2)n1
[Q] COc1cc(C(=O)N2CCC[C@H]2c2nnc(-c3cccc(Cl)c3OC)[nH]2)c(-n2nccn2)cc1Cl
From the items above, decide which of P and Q has the lower IC50 reading. Give the chosen item's label as your response.
Q
(Q: 1 nM, P: 25 nM)
